Ref: BindingDB's records for doi:10.3109/14756366.2013.765413

# System name: DNA topoisomerase I/type IB small subunit (Leishmania donovani, UniProt E9B7X3+E9BRC0)
# Sequence (E9B7X3 whole entry): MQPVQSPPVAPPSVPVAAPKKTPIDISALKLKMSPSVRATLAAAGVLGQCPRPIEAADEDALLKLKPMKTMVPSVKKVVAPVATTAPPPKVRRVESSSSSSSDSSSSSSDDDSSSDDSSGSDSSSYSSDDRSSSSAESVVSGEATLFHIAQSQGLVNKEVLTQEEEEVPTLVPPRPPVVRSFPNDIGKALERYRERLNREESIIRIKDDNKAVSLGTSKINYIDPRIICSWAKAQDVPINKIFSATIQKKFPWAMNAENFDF
# Sequence (E9BRC0 whole entry): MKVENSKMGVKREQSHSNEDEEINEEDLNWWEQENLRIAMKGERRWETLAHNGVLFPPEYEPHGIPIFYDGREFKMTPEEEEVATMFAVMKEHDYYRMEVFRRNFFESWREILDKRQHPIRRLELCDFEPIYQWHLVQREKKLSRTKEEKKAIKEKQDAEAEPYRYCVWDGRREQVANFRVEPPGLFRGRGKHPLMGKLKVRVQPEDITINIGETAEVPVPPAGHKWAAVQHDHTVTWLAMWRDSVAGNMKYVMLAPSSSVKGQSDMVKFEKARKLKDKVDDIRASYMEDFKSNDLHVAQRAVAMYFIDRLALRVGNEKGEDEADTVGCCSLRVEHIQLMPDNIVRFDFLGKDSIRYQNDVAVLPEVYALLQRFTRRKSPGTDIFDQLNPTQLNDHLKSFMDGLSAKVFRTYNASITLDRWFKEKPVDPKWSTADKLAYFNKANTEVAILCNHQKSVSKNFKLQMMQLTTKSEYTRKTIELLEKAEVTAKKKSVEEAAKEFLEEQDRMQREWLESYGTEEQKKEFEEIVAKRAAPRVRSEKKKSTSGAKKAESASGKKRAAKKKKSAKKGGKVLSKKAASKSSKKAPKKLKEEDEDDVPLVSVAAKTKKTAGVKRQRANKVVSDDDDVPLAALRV
# Protocol notes: Stimultaneous Relaxation Assay
# Condition label: pH 7.5
# Method: In simultaneous relaxation assay, CPT concentrations were 50 and 100 μM, whereas concentration of compounds were 50, 100 and 200 μM. […] The amount of supercoiled monomer DNA band fluorescence after ethidium bromide (EtBr) (0.5 mg/ml) staining was quantitated by using GEL Doc 2000 from Biorad (Hercules, CA, USA).
Assay readout: IC50 (µM)
Numeric only. Scale: µM

[[record]]
substance_smiles = "O=C1C(O)=C(C(C2=C(O)C(=O)c3ccccc3C2=O)c2ccccc2)C(=O)c2ccccc21"
system_name = "DNA topoisomerase I/type IB small subunit (Leishmania donovani, UniProt E9B7X3+E9BRC0)"
assay_readout = "IC50"
uom = "µM"
number = 51


Record summary for CN(C)c1ccc(C(C2=C(O)C(=O)c3ccccc3C2=O)C2=C(O)C(=O)c3ccccc3C2=O)cc1 : reported IC50 = 37.5

Record summary for O=C1C(O)=C(C(C2=C(O)C(=O)c3ccccc3C2=O)c2ccc(O)cc2)C(=O)c2ccccc21 : reported IC50 = 70
